TGT: T1, recombinant cynomolgus monkey PD-L1 with a C-terminal myc-myc-hexahistidine tag (cynomolgus monkey (Macaca fascicularis))
T1 construct: also called MfPD-L1-MMH; MfPD-L1-MMH Monomer
ASSAY PROTOCOL: SPR (Biacore), mAb captured, 25C
REPORTED PROPERTY: t1/2 (min)
Response body: numeric value in min, unit text excluded.

{"BINDER": "H2aM8317N (antibody, mouse IgG2, V domains shown, also called H2M8317N) VH: EVQLVESGGGLVQPGGSLRLSCAASGFTVGSNYMNWVRQAPGKGLEWVSVIYSGGSTYYADSVKGRFTISRLTSKNTLYLQMSSLRPEDTAVYYCARGIRGLDVWGQGTTVTVSS VL: DIQMTQSPSSLSASVGDRVTITCRASQTINIYLNWYQQKPGRAPRLLIYAASSLQSGVPSRFSGSGSGTDFTLTISSLQPEDFATYYCHQSYSTPPITFGQGTRLEIK", "t1/2 / min": 0.5}
{"BINDER": "H2aM8321N (antibody, mouse IgG2, V domains shown, also called H2M8321N) VH: EERLVESGGDLVQPGGSLRLSCAASGITVGTNYMNWVRQAPGKGLEWVSVISSGGNTHYADSVKGRFIMSRQTSKNTLYLQMNSLETEDTAVYYCARGIRGLDVWGQGTMVTVSS VL: DIQMTQSPSSLSASVGDRVTITCRASQSMSSYLNWYQQKPGRAPKLLIFAASSLQSGVPSRFSGSGSGTDFTLTISSLQPEDFATYYCQQSYSTPPITFGQGTRLEIK", "t1/2 / min": 2.9}
{"BINDER": "H1H9336P (antibody, human IgG1, V domains shown) VH: EVQLVESGGGLVQPGRSLRLSCAASGFTFDDFAMHWVRQAPGKGLEWVSGISWTGGNMDYANSVKGRFTISREDAKNSLYLQMNSLRAADTALYYCVKDIRGIVATGGAFDIWGRGTMVTVSS VL: DIQMTQSPSSLSASVGDRVTISCRASQTISTYLNWFQQKPGKAPKLLIYVVSSLQSGVPSRFSGSGSGTDFTLTISSLQPEDFATYYCQQSYSTPFTFGPGTKVDIK", "t1/2 / min": 19}

Entry H1H9329P (antibody, human IgG1, V domains shown) VH: EVQLVESGGGLVQSGGSLRLSCAASGFTFSSYWMSWVRQAPGKGLEWVANIKQDGSEKYYVDSVKGRFTISRDNAKNSLYLQMNSLRADDTAVYYCARDDIVVVPAPMGYYYYYFGMDVWGQGTTVTVSS VL: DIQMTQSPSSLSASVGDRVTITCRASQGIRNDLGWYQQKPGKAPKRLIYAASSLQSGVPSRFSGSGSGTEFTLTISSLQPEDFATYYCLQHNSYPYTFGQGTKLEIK has what t1/2?
0.09

Name the recorded t1/2 for H2aM8310N (antibody, mouse IgG2, V domains shown, also called H2M8310N) VH: QVQLVQSGAEVKKPGASVQVSCKASGYSFTGYYIHWVRQAPGQGLEWMGWINPNSGTKKYAHKFQGRVTMTRDTSIDTAYMILSSLISDDTAVYYCARDEDWNFGSWFDSWGQGTLVTVSS VL: DIVMTQTPLSSPVTLGQPASISCRSSQTLVHGDGNTYLSWIQQRPGQPPRLLIYKVSNQFSGVPDRFSGSGAGTDFTLKISRVEAEDVGLYFCMQATHFPITFGQGTRLEIK .
38

# input binder: H2aM8323N (antibody, mouse IgG2, V domains shown, also called H2M8323N) VH: QVQLVQSGAEVKMPGSSVRVSCKASGGIFSSSTISWVRQAPGQGLEWMGEIIPVFGTVNYAQKFQDRVIFTADESTTTAYMELSSLKSGDTAVYFCARNWGLGSFYIWGQGTMVTVSS VL: EIVLTQSPGTLSLSPGERATLSCRASQSFNFNYLAWYQQKPGQAPRLLIYGASSRATGIPDRFSGSGSGTDFTLTINRLEPEDFGVFYCQQYESAPWTFGQGTKVEIK ; wanted: its t1/2
1.3

Fill in the blank: the reported t1/2 of H2aM8314N (antibody, mouse IgG2, V domains shown, also called H2M8314N) VH: EVQLVESGGGVVRPGGSLRLSCAASGFTFDDYGMTWVRQAPGRGLEWVSGIHWHGKRTGYADSVKGRFTISRDNAKKSLYLQMNSLKGEDTALYHCVRGGMSTGDWFDPWGQGTLVIVSS VL: DIQMTQSPSSLSASLGDRVTITCRASQSINSYLNWYQQKPGKAPKLLIYVASSLQSGVPSRFSGSGSGTEFTLTISNLQPEDFATYYCQQSYSTPPITFGQGTRLEIK is ____.
165
